Reference for the values: paper PMC7251097

# measured on: His6-AspH315–758 (human aspartate/asparagine-β-hydroxylase, AspH) (Homo sapiens, UniProt Q12797)
# Construct: N-Terminally His6-tagged human AspH315–758 (His6-AspH315–758) was produced in E. coli BL21 (DE3) cells; made in house; host or cells: E. coli BL21 (DE3), pET-28a(+) vector
# Sequence (Q12797 315-758): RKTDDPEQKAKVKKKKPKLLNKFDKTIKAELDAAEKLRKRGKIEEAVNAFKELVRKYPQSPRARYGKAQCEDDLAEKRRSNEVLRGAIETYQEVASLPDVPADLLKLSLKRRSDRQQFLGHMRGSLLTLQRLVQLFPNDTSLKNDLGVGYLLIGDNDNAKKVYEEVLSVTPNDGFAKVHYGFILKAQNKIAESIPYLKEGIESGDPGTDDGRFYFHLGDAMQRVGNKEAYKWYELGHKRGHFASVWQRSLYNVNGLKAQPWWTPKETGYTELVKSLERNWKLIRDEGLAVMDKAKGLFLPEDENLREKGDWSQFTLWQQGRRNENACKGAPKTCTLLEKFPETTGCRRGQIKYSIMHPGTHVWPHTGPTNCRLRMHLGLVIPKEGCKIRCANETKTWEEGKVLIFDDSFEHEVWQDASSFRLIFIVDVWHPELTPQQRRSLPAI
# method notes: SPE-MS AspH inhibition assay (LOPAC screen at fixed 20 μM and IC50 dose-response), hydroxylation of cyclic peptide hFX-CP101–119
# Format: biochemical
# measurement parameters: LOPAC compound at 20uM, plate 2; normalised to DMSO and 2,4-PDCA controls
Plate 2 (% inhibition) for assorted molecules
The answer is to be given in %; state only the numeric part.

CCCCCC(O)CCCC(=O)O.[Na] (stereo not shown) [5-hydroxydecanoic acid sodium]: -3.01

[ask] Consider the molecule shown here: O=[N+]([O-])/C=C/c1ccc2c(c1)OCO2 What is its recorded Plate 2 (% inhibition)?
[reply] 30.34

[ask] Moving on to the next molecule: Cl.N#Cc1ccc(N2CCN(C(=O)COc3ccc4[nH]cc(CCN)c4c3)CC2)cc1 [Donitriptan monohydrochloride]
[reply] 38.09

[ask] Ok, now Clc1ccc(N2C[C@H]3CC[C@@H](C2)N3)nn1
[reply] 9.30

[ask] Same again, this time with Cl.c1ccc2c(c1)CCC[C@H]2Nc1nc2ccccc2[nH]1 [NS8593 hydrochloride]
[reply] -10.19

[ask] Check O=C(O)CN(CCOCCOCCN(CC(=O)O)CC(=O)O)CC(=O)O too.
[reply] -6.96

[ask] Now this one: O=C1c2ccccc2C(=O)c2c(NCCc3ccc(O)cc3)ccc(NCCc3ccc(O)cc3)c21
[reply] 68.90

[ask] Okay, and Cn1c(=O)c2[nH]c(C3CCCC3)nc2n(C)c1=O ?
[reply] -2.21

[ask] // query: N[C@@H](Cc1ccc(F)cc1)C(=O)O
[reply] -1.58

[ask] // next record Br.CCCN1CCc2cc(O)cc3c2[C@H]1Cc1ccc(O)c(O)c1-3
[reply] 87.47

[ask] Cool, now Nc1ncnc2c1ncn2[C@@H]1O[C@H](COP(=O)(O)OP(=O)(O)OP(=O)(O)OP(=O)(O)OC[C@H]2O[C@@H](n3cnc4c(N)ncnc43)[C@H](O)[C@@H]2O)[C@@H](O)[C@H]1O
[reply] 25.01
